B1: TAF7L (parent)
chain: PDVENEVKRLLRSDAEAVSTRWEV

variants of: B1; assay: protein stability index of a GFP-peptide fusion (GPS, HEK-293T) (PSI 1-6); higher = more stable; settings: c terminus: a fixed tail appended;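 also: lentivirally expressed fusions sorted by FACS into six bins by GFP to DsRed ratio, PSI derived from sequencing read proportions per bin multiplied by bin number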
propertyLabel: protein stability index
Please respond with just the number, no unit label.

K8N ... 3.08
T20I ... 2.12
R12S ... 3.75

For the variant "R21P" , what protein stability index is on record?
3.87

For the variant "A15Y" , what protein stability index is on record?
3.51

For the variant "L10K" , what protein stability index is on record?
3.8
